Assay: Triapine pharmacokinetics in plasma and erythrocytes
Format: in vivo, human
Settings: human, plasma, intravenous, 45 mg/m2, Tmax, plasma; Triapine 25 or 45 mg/m2, cycle 1 day 1; mean

| chemical-structure | Tmax [min] |
| --- | --- |
| NC(=S)NN=Cc1ncccc1N | 13.2 |

====

Assay: clinical
Details: human, in vivo, iv
Structures can show the parent of a compound that is named as a salt.

| compound | half-life (h) |
| --- | --- |
| COc1cccc2c1C(=O)c1c(O)c3c(c(O)c1C2=O)C[C@@](O)(C(=O)CO)C[C@@H]3O[C@H]1C[C@H](N)[C@H](O)[C@H](C)O1 [doxorubicin, Doxorubicin hydrochloride] | 10.1 |

====

Experiment: Triapine pharmacokinetics in plasma and erythrocytes
Type: in vivo, human
Conditions: human, erythrocytes, intravenous

| chemical-structure | AUC(0-inf) (ng·h/mL) |
| --- | --- |
| NC(=S)NN=Cc1ncccc1N | 1450 |
